Origin of measurements: patent US20260174875A1

# testSystem: human GLP-1 receptor (human, UniProt P43220 24-463)
# experimentalDetails: cell-based or functional assay
Numbered stars: 1 amine (or outer) side, 2 acyl side, 3 side chain; on linkers, the order of the positions; unused ones are H or OH. Square brackets hold non-standard residues; d marks the D form. Side chains are listed from the residue outwards. * marks the point of attachment. C18 diacid = O=C(O)CCCCCCCCCCCCCCCCC(=O)*; γGlu = O=C(O)[C@H](CCC(=O)[*:2])N[*:1]; AEEA = NCCOCCOCC(=O)O; Aib = CC(C)(N)C(=O)O
Consider the following binders and their measured hGLP-1R Potency, 1% HSA, EC50 [pM] readings.
Lab book: enter the figure in pM, no units written.

Compound 65 (peptide) peptide: H[Aib]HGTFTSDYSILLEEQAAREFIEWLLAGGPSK([AEEA-AEEA-γGlu-C18 diacid])GEASQLSTAALGRLSAELHGLATLPRTETGSGSP-NH2	100

Now turn to the next binder.
Request: What does the data say about its hGLP-1R Potency, 1% HSA, EC50 [pM]? Entry: Compound 73 (peptide) peptide: H[Aib]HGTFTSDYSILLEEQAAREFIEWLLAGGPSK([AEEA-AEEA-γGlu-C18 diacid])GEASQLSTAALGRLSAELHRLATLPRTETGSGSP-NH2
Response: 54.1
